Catalogue of apparent KD of K4 kissing-loop reporter values
Tested on: K4 kissing-loop RNA reporter;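 further: bound reporter read as fluorescence of individual clusters on recovered sequencing chips by microscopy, with normalized cluster intensities fitted with a binding model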
test.name: apparent KD of K4 kissing-loop reporter; higher = weaker reporter binding
applied.conditions: Eterna round: R107; input ligand: arginine 13.2 mM
Kindly answer with a numeric value in nM, unit omitted.

Ask | Quick check: apparent KD of K4 kissing-loop reporter of GUGCGCGGUGCGGCCGCCACUCGCAUGAGAGUGAUGUUCUCGGGACGGACGGAAGUCCGUCAUGUGAGGACCGGGCAUGGCUGCG [#2 Same State - Tryptophan B Attempt #10 (HarryS)] ?
Reply | 344

Ask | Quick check: apparent KD of K4 kissing-loop reporter of AGUAUGUAAUAUGGCAUAUUUAGAACUGAAGGAGCGCCGAAUAAGGCAGGUAGGUCGCGGAAAUAUGAGUGAUGUUCAUGUUUAA [KL-SSArg-A25] ?
Reply | 103

Ask | Quick check: apparent KD of K4 kissing-loop reporter of UUCUAACACACCGAUACCAGAGCCCAGUGAUGUUGGGCCUAGGUCGGAUGCUCACUGACGCUCCCUUGGCAGCGGUGGGCUAACC [Arreisve] ?
Reply | 112

Ask | Quick check: apparent KD of K4 kissing-loop reporter of UACUUAUAUAUCAACUUAAAUUAUUCAGAAGGAGCGUGAUCAUUCACAGGUAGGUCGCUGAACUAGUGAUGUUAGUUUUAAUUUU [JR_Nu_ExcArginiA_Sub023] ?
Reply | 146

Ask | Quick check: apparent KD of K4 kissing-loop reporter of UAUUUAAUGUCAGGAUAUCGUAUACGAGUGAUGUUCGUAUUUCUACUAUAGAUUAUUUAAAUUUUUCGAGAAGGGACAAUAUUUA [KL-SSFMN-B4] ?
Reply | 208

----------
System: MS2 coat protein
test.name: apparent KD of MS2 coat protein; higher = weaker reporter binding
applied.conditions: Eterna round: R107; input ligand: none
measurement.kind: apparent KD of MS2 coat protein (nM)
Kindly answer with a numeric value in nM, unit omitted.

Recorded results for 4 sequences are shown here.
AUGCAUAGCGGAAGGAGCGCAAUAGAAUGACAUGAGGAUCACCCAUGUGUGUGAUGUGGGUUGCAGGUAGGUCGCCGAGUGGCAU [#11 Exclusion - Arginine B] ... 80.9
UUAAUCAUUGAUGAAAACAUUAAUGCAGAAGGAGCGUGAUAAAACACAGGUAGGUCGCUGAAGGGAACAUGAGGAUCACCCAUGU [AstrosSSArgA#16] ... 28.1
AUUACAUGGAUUACAACUAAAUCAACUGAAGGAGCGUGAAGGAUCACAGGUAGGUCGCAGUACAUGAGGAUCACCCAUGUUAUAA [JR_Nu_SSArginiA_Sub021] ... 34
CCUAUGCAGUCGGCCGCCACUGUACAUGAGGAUCACCCAUGUUCCAAAAUAAAAGGAACUGAAAUCAGGACCGGGACUGUAUAGG [Ex Tryptophan B 1] ... 33.3

Ask | Hi! What's the reported apparent KD of MS2 coat protein for ACCUGUACGAAAAGUGCAGGACACGGAAUACGAGGACCGGUACGGCCGCCACUCGGAAUAACCUGAGGAUCACCCUGGUACCGUG [TrypAS 10 #AlternativeMS2 #Zipper #StaticStem] on MS2 coat protein?
Reply | 18.8

Ask | Hi! What's the reported apparent KD of MS2 coat protein for GGGAUAUAGGCGGCCGCCACUGAUUUUCAUAUAUAUAUAACAUGAGGAUCACCCAUGUAGAUAUACAGGACCGGGCCUAUAUUUU [aaaD] on MS2 coat protein?
Reply | 15.2

Ask | Hi! What's the reported apparent KD of MS2 coat protein for UGGGUACAUGAGGAUCACCCAUGUACUGAAGGAGCGAGAAAUAUCUCAGGUAGGUCGCAGACAUGAGGAUCACCCAUGUAGUAGG [Exclusion Arginine A GF 11] on MS2 coat protein?
Reply | 28.1

Ask | Hi! What's the reported apparent KD of MS2 coat protein for UUAAUCUUAGAAGAAAACUUUUAAGCAGAAGGAGCGUGAUAAAACACAGGUAGGUCGCUGAAGGGAACAUGAGGAUCACCCAUGU [AstrosSSArgA#18] on MS2 coat protein?
Reply | 22

Data origin: the supplement of paper PMC9170038
